Provide the recorded glycan array binding signal (z-score) for the entries that follow.
TARGET ENTITY: Gal(a1-3)Gal(b1-4)GlcNAc(b1-2)Man(a1-3)[Gal(a1-3)Gal(b1-4)GlcNAc(b1-2)Man(a1-6)]Man(b1-4)GlcNAc(b1-4)GlcNAc
ASSAY DETAILS: glycan array binding signal (z-score within array); higher = stronger binding
STUDY CONDITIONS: glycan notation: IUPAC condensed, linker removed
This excerpt belongs to a sample that is enriched for the strongest signals.
Output spec: single numeric token, no unit.

Input line: Query glycan array binding signal (z-score) for MGL6A (Homo sapiens) (protein) MTRTYENFQYLENKVKVQGFKNGPLPLQSLLQRLCSGPCHLLLSLGLGLLLLVIICVVGFQNSKFQRDLVTLRTDFSNFTSNTVAEIQALTSQGSSLEETIASLKAEVEGFKQERQAVHSEMLLRVQQLVQDLKKLTCQVATLNNNGEEASTEGTCCPVNWVEHQDSCYWFSHSGMSWAEAEKYCQLKNAHLVVINSREEQNFVQKYLGSAYTWMGLSDPEGAWKWVDGTDYATGFQNWKPGQPDDWQGHGLGGGEDCAHFHPDGRWNDDVCQRPYHWVCEAGLGQTSQESH
Output line: -0.225

Input line: Query glycan array binding signal (z-score) for Clec49 (Caenorhabditis elegans) (protein) MTRLTLLLFGLLGAATAQTCNTGGIYNEQFNRCYQYFTAPAQFSFAEQQCNLLGGHLASVQNGQENALLQSNAANSFKRSNYSDYWIGATDLETSGTWKWTDPSVTFDYSNWQLGEPQSGSDCAIQDKGDGTWSAIGCTSYRPYVCVTPVIMTATCPPITTPIPTTCPTPAPCPIKQCVPSCDQGWTYFSPTDFCYRVYHGEKFNDAEASCVLLGGHLASIHSLTENTFVNNIASCGIKEGKYEHLAWIGMRKVGQDWVWTDGTPSDYFNWAPKQPDNPKKELCVQTAPDLSHDKWYENWNNLECNEVMRAYICKKASIHN
Output line: 0.541

Input line: Query glycan array binding signal (z-score) for MpAFP NterminalRI GFP (Marinomonas primoryensis) (protein) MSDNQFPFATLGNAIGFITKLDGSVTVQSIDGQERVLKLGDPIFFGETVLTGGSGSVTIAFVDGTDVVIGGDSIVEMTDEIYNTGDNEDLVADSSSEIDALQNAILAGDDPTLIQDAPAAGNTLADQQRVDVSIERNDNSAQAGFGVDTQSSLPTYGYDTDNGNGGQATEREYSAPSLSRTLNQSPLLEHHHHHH
Output line: -0.164

Input line: Query glycan array binding signal (z-score) for GSL-I-B4 (Griffonia simplicifolia) (protein) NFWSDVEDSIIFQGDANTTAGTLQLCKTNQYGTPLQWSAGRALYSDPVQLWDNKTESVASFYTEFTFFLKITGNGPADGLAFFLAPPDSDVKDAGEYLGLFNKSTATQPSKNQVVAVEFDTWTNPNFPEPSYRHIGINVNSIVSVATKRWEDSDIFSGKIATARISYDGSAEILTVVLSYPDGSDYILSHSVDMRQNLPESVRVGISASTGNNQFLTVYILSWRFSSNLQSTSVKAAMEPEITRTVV
Output line: 7.78

Input line: Query glycan array binding signal (z-score) for EULS2 M1 (Oryza sativa) (protein) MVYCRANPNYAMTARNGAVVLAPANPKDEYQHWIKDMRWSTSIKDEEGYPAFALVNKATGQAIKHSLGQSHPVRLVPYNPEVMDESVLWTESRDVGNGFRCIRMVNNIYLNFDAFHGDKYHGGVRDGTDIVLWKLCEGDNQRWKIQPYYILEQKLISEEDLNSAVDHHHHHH
Output line: 0.844
